assay: Protide stability in normal plasma, human; type: in vitro ADME; conditions: 37° C., 1.5 h
Property name: % Compound Remaining Compared to %100 Acetonitrile Control (%)

{"Compound": "COc1nc(N)nc2c1ncn2C1O[C@H](COP(=O)(N[C@H](C(=O)OCc2ccccc2)C(C)C)Oc2cccc3ccccc23)[C@@H](O)[C@@]1(C)O (stereo partly drawn) [Example 36]", "Assay value": 74.1}
{"Compound": "COc1nc(N)nc2c1ncn2C1O[C@H](COP(=O)(N[C@H](C(=O)OCC(C)(C)C)C(C)C)Oc2cccc3ccccc23)[C@@H](O)[C@@]1(C)O (stereo partly drawn) [Example 42]", "Assay value": 82.5}
{"Compound": "COc1nc(N)nc2c1ncn2C1O[C@H](COP(=O)(N[C@@H](C)C(=O)OCC(C)(C)C)Oc2cccc3ccccc23)[C@@H](O)[C@@]1(C)O (stereo partly drawn) [Example 20]", "Assay value": 101.5}

* * *

experiment: Protide stability in normal plasma, human; type: in vitro ADME; settings: 37° C., 30 min
Property name: % Compound Remaining Compared to %100 Acetonitrile Control

{"Compound": "C[C@H](NP(=O)(OC[C@H]1OC(n2cnc3c(=O)[nH]c(N)nc32)[C@](C)(O)[C@@H]1O)Oc1cccc2ccccc12)C(=O)OCC(C)(C)C (some centres unmarked) [A, reference compound]", "Assay value": "83.2%"}
{"Compound": "COc1nc(N)nc2c1ncn2C1O[C@H](COP(=O)(N[C@H](C(=O)OC2CCOCC2)C(C)C)Oc2cccc3ccccc23)[C@@H](O)[C@@]1(C)O (some centres unmarked)", "Assay value": "105.1%"}
{"Compound": "COc1nc(N)nc2c1ncn2C1O[C@H](COP(=O)(N[C@@H](C)C(=O)OCc2ccccc2)Oc2cccc3ccccc23)[C@@H](O)[C@@]1(C)O (some centres unmarked)", "Assay value": "97.2%"}
{"Compound": "COc1nc(N)nc2c1ncn2C1O[C@H](COP(=O)(N[C@H](C(=O)OCc2ccccc2)C(C)C)Oc2cccc3ccccc23)[C@@H](O)[C@@]1(C)O (some centres unmarked)", "Assay value": "70.3%"}
{"Compound": "CC(C)[C@H](NP(=O)(OC[C@H]1OC(n2cnc3c(=O)[nH]c(N)nc32)[C@](C)(O)[C@@H]1O)Oc1cccc2ccccc12)C(=O)OCC(C)(C)C (some centres unmarked) [B, reference compound]", "Assay value": "74.7%"}
{"Compound": "COc1nc(N)nc2c1ncn2C1O[C@H](COP(=O)(N[C@@H](C)C(=O)OCC(C)(C)C)Oc2cccc3ccccc23)[C@@H](O)[C@@]1(C)O (some centres unmarked)", "Assay value": "94.0%"}
{"Compound": "COc1nc(N)nc2c1ncn2C1O[C@H](COP(=O)(N[C@H](C(=O)OCC(C)(C)C)C(C)C)Oc2c(C)ccc3ccccc23)[C@@H](O)[C@@]1(C)O (some centres unmarked)", "Assay value": "80.4%"}
{"Compound": "COc1nc(N)nc2c1ncn2C1O[C@H](COP(=O)(N[C@H](C(=O)OCC(C)(C)C)C(C)C)Oc2cccc3ccccc23)[C@@H](O)[C@@]1(C)O (some centres unmarked)", "Assay value": "88.5%"}

* * *

tested on: HCV replicon (Genotype 1b); assay: Luciferase genotype 1b replicon potency assay; settings: Hepatitis C virus, GETYPE1B, read-out: IC50 μM, HCV genotype 1b luciferase replicon, Renilla luciferase reporter
Measured log10 of IC50 accompanies every entry in the list below.
Property name: log10 of IC50 (log10 of the value in µM)

{"Compound": "COc1nc(N)nc2c1ncn2C1O[C@H](COP(=O)(N[C@@H](C)C(=O)OCc2ccc(F)cc2F)Oc2cccc3ncccc23)[C@@H](O)[C@@]1(C)O (some centres unmarked)", "log10 of IC50": -0.89}
{"Compound": "COC(=O)[C@@H](C)c1ccc2cc(OP(=O)(N[C@@H](C)C(=O)OCC(C)(C)C)OC[C@H]3OC(n4cnc5c(OC)nc(N)nc54)[C@](C)(O)[C@@H]3O)ccc2c1 (some centres unmarked)", "log10 of IC50": -1.64}
{"Compound": "COc1nc(N)nc2c1ncn2C1O[C@H](COP(=O)(N[C@H](C(=O)OCc2ccc(F)cc2F)C(C)C)Oc2cccc3ncccc23)[C@@H](O)[C@@]1(C)O (some centres unmarked)", "log10 of IC50": -0.77}
{"Compound": "COc1nc(N)nc2c1ncn2C1O[C@H](COP(=O)(N[C@H](C(=O)OC2CCOCC2)C(C)C)Oc2cccc3ccccc23)[C@@H](O)[C@@]1(C)O (some centres unmarked)", "log10 of IC50": -0.74}
{"Compound": "C[C@@]1(O)[C@H](O)[C@@H](CO)O[C@H]1n1cnc2c(NCc3ccccc3)nc(N)nc21", "log10 of IC50": 1.43}
{"Compound": "CCCOC(=O)[C@@H](NP(=O)(OC[C@H]1OC(n2cnc3c(OC)nc(N)nc32)[C@](C)(O)[C@@H]1O)Oc1cccc2ccccc12)c1ccccc1 (some centres unmarked)", "log10 of IC50": -1.07}
{"Compound": "CCOc1nc(N)nc2c1ncn2C1O[C@H](COP(=O)(N[C@@H](C)C(=O)OCc2ccc(F)cc2F)Oc2cccc3ccccc23)[C@@H](O)[C@@]1(C)O (some centres unmarked)", "log10 of IC50": -1.47}
{"Compound": "C[C@H](NP(=O)(OC[C@H]1OC(n2cnc3c(NCc4ccccc4)nc(N)nc32)[C@](C)(O)[C@@H]1O)Oc1cccc2ccccc12)C(=O)OCC(C)(C)C (some centres unmarked)", "log10 of IC50": -0.24}
{"Compound": "COc1nc(NCc2ccc(F)cc2)nc2c1ncn2[C@@H]1O[C@H](COP(=O)(N[C@@H](C)C(=O)OCC(C)(C)C)Oc2cccc3ccccc23)[C@@H](O)[C@@]1(C)O (some centres unmarked)", "log10 of IC50": 0.86}
{"Compound": "CCOc1nc(N)nc2c1ncn2C1O[C@H](CO)[C@@H](O)[C@@]1(C)O (some centres unmarked)", "log10 of IC50": 1.04}
{"Compound": "COc1nc(N)nc2c1ncn2C1O[C@H](COP(=O)(N[C@H](C(=O)OCc2ccc(F)cc2F)C(C)C)Oc2ccc3ncccc3c2)[C@@H](O)[C@@]1(C)O (some centres unmarked)", "log10 of IC50": -0.96}
{"Compound": "COc1nc(N)nc2c1ncn2C1O[C@H](COP(=O)(N[C@H](C(=O)OCC(C)(C)C)C(C)C)Oc2cccc3cccnc23)[C@@H](O)[C@@]1(C)O (some centres unmarked)", "log10 of IC50": -0.06}
{"Compound": "COc1nc(N)nc2c1ncn2C1O[C@H](COP(=O)(N[C@H](C(=O)OCc2ccc(F)cc2F)C(C)C)Oc2cccc3ccccc23)[C@@H](O)[C@@]1(C)O (some centres unmarked)", "log10 of IC50": -1.37}
{"Compound": "COc1nc(N)nc2c1ncn2[C@@H]1O[C@H](COP(=O)(N[C@@H](CC(C)C)C(=O)OCC(C)(C)C)Oc2cccc3ccccc23)[C@@H](O)[C@@]1(C)O (some centres unmarked)", "log10 of IC50": -1.15}
{"Compound": "CCOc1nc(N)nc2c1ncn2C1O[C@H](COP(=O)(N[C@@H](C)C(=O)O[C@@H](C)c2ccccc2)Oc2cccc3ccccc23)[C@@H](O)[C@@]1(C)O (some centres unmarked)", "log10 of IC50": -1.20}
{"Compound": "C[C@@]1(O)[C@H](O)[C@@H](CO)O[C@H]1n1cnc2c(NCCc3ccccc3)nc(N)nc21", "log10 of IC50": 1.37}
{"Compound": "COc1nc(N)nc2c1ncn2C1O[C@H](COP(=O)(N[C@H](C(=O)OC2CCC2)C(C)C)Oc2cccc3ccccc23)[C@@H](O)[C@@]1(C)O (some centres unmarked)", "log10 of IC50": -0.41}
{"Compound": "COc1nc(N)nc2c1ncn2C1O[C@H](COP(=O)(N[C@H](C)C(=O)OCC(C)(C)C)Oc2cccc3ccccc23)[C@@H](O)[C@@]1(C)O (some centres unmarked)", "log10 of IC50": -0.62}
{"Compound": "COC(=O)[C@@H](C)c1ccc2cc(OP(=O)(N[C@@H](C)C(=O)OCc3ccc(F)cc3F)OC[C@H]3OC(n4cnc5c(OC)nc(N)nc54)[C@](C)(O)[C@@H]3O)ccc2c1 (some centres unmarked)", "log10 of IC50": -1.26}
{"Compound": "COc1nc(N)nc2c1ncn2C1O[C@H](COP(=O)(N[C@@H](C(=O)OC2CCCCC2)c2ccccc2)Oc2cccc3ccccc23)[C@@H](O)[C@@]1(C)O (some centres unmarked)", "log10 of IC50": 0.40}
{"Compound": "COc1nc(N)nc2c1ncn2C1O[C@H](COP(=O)(N[C@H](C(=O)O[C@@H](C)c2ccccc2)C(C)C)Oc2cccc3ccccc23)[C@@H](O)[C@@]1(C)O (some centres unmarked)", "log10 of IC50": -0.03}

Origin of measurements: patent US8759318B2
